molecular target: RNA-binding protein pos-1 (Caenorhabditis elegans); assay: disruptors of C. elegans POS-1 RNA interaction – biochemical, fluorescence polarization, dose response (AID 1964);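 further: purified POS-1 fused to maltose binding protein made in E. coli; potency of compounds blocking POS-1 binding to fluorescent RNA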
Sequence (G5EF15 whole entry, the tested form may be a part): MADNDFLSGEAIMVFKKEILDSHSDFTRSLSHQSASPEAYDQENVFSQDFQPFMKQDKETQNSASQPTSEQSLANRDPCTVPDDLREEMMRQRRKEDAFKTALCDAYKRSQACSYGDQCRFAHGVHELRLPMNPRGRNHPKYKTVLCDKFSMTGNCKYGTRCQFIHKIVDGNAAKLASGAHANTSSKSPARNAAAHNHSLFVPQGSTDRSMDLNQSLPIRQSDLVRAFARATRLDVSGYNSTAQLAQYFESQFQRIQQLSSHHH
Active and inactive are the calls of the source.
Measured quantity: EC50

The examples below pair each entry with its known result.
- Compound: "Cc1cc(/C=N/n2cnnc2)c(C)n1-c1cccc(C(=O)O)c1"
  Value reported: "> 300 µM (not active)"
- Compound: "COC(=O)C1=C(C)N(c2ccc(Cl)cc2)/C(=C/c2cccs2)C1=O"
  Value reported: "> 300 µM (not active)"
- Compound: "O=C(/C=C/c1ccc([N+](=O)[O-])o1)NNC(=O)c1ccc(F)cc1"
  Value reported: "> 300 µM (not active)"
- Compound: "Cc1cc(C)c(S(=O)(=O)Nc2cc(SCC(=O)O)c(O)c3ccccc23)cc1C"
  Value reported: "> 300 µM (not active)"
- Compound: "O=C(NNC(=O)c1ccccc1[N+](=O)[O-])c1csc(N2CCOCC2)n1"
  Value reported: "84.9 µM (active)"

# map each compound to its EC50
1. O=C(Cc1ccccc1)Nc1ccc(N2CCOCC2)cc1N1CCOCC1
2. COc1cc(NCCCC(C)N)c2ncccc2c1 (stereo unspecified)
3. Oc1ccc(O)c(-c2cnns2)c1
4. COc1ccc(CCN2C(=O)NC(=O)/C(=C\Nc3ccc(NC(C)=O)cc3)C2=O)cc1OC
5. C=CCN1C(=O)NC(=O)/C(=C/C=C/Nc2ccccc2)C1=O

1. > 300 µM (not active)
2. 42.5 µM (active)
3. > 300 µM (not active)
4. > 300 µM (not active)
5. > 300 µM (not active)

Query O=C(/C=C/c1ccco1)NC(=S)Nc1cccc(C(=O)O)c1 yields EC50 of 8.57 µM (active)

* * *

Molecular target: DNA repair and recombination protein RAD54-like (Homo sapiens, UniProt Q92698)
Sequence (Q92698 whole entry): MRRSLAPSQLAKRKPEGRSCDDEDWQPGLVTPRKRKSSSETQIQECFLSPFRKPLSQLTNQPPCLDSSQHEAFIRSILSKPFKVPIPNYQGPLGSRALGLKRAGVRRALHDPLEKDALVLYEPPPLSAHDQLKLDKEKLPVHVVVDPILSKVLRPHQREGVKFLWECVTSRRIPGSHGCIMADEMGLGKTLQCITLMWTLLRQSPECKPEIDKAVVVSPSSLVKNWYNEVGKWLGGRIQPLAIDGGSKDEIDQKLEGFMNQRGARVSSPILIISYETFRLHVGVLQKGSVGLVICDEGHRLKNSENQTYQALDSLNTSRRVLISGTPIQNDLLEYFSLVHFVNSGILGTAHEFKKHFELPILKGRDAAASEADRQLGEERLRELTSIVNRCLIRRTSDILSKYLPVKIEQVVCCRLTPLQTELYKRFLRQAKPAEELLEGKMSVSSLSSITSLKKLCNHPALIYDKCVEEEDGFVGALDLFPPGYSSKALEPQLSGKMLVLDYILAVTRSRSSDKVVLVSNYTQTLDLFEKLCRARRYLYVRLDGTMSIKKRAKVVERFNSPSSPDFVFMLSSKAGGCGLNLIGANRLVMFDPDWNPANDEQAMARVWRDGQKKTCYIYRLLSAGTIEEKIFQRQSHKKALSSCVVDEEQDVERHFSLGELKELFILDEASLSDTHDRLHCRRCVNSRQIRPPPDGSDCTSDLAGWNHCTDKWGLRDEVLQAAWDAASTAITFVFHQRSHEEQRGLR
Assay: RAD54 Holliday junction migration blockers – biochemical, fluorescence, cherry-picked samples, dose series, confirmation (AID 651657)
Format: functional
Active and inactive are the calls of the source.
Respond using exactly one of the listed classes: active, inactive

A selection of reference data follows.
- Molecule: "Cc1ccc2oc(=O)c3cc(C(=O)NCCCN4C(C)CCCC4C)sc3c2c1 (stereo unspecified)"
  Qualitative label: "inactive"
- Molecule: "CCN1CCN(c2nc(N)c([N+](=O)[O-])c(Nc3cccc(C)c3)n2)CC1"
  Qualitative label: "active"

What did the test return for COc1cccc(-c2cc3nc(NCCCN(C)C)n(C)c(=O)c3s2)c1 ? active

What did the test return for Oc1ccc(Nc2nc(N3CCCC3)c3ccccc3n2)cc1 ? active

What did the test return for COc1cc2nc(N3CCNCC3)nc(N)c2cc1OC ? active

What did the test return for CCn1c(=N)c(C(=O)NC)cc2c(=O)n3cccc(C)c3nc21 ? active

* * *

molecular target: Cytochrome P450 2C19 (Homo sapiens, UniProt P33261); assay: Cytochrome panel assay with activity outcomes. Panel member name: p450-cyp2c19 Compounds with AC50 equal or less than 10 uM are considered active; type: functional; conditions: read-out: AC50
Sequence (P33261 whole entry): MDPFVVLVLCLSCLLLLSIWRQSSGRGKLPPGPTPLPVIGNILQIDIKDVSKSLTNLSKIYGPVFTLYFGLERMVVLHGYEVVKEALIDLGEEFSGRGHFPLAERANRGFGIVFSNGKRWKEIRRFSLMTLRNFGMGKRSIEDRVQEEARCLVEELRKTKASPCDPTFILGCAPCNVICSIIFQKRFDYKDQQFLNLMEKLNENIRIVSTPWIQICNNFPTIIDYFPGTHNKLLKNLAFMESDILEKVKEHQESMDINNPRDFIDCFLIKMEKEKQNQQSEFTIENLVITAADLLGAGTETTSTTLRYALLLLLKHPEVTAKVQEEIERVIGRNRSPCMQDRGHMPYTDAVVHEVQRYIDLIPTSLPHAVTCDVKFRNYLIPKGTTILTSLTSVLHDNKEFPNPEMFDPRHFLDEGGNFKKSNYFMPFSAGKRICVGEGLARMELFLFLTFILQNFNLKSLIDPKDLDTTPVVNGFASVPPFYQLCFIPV
Exercise: state measured AC50 for each of the compounds provided.

The examples below pair each entry with its known result.
- Compound: "COCCn1c(=O)c(-c2cc(F)cc(F)c2)nc2cnc(OC)nc21"
  Value reported: "39.8 µM (inconclusive)"
- Compound: "CCCC(=O)Nc1nc2nc(-c3ccccc3)cc(-c3ccccc3)n2n1"
  Value reported: "11.2 µM (inconclusive)"
- Compound: "Cn1c(O)c(C(c2ccccn2)c2c(O)n(C)c(=S)[nH]c2=O)c(=O)[nH]c1=S"
  Value reported: "0.316 µM (inconclusive)"
- Compound: "Cc1nn(C(=O)CN2C(=O)c3ccccc3C2=O)c(C)c1Br"
  Value reported: "4.47 µM (inconclusive)"
- Compound: "COc1ccc(NC(=O)C2CC(=O)NC3=C2C(=O)CC(C)(C)C3)cc1 (configuration not stated)"
  Value reported: "39.8 µM (inconclusive)"

# map each compound to its AC50
1. CN1C2C=C3C(C#N)=C(N)C(C#N)(C#N)[C@H](c4c(F)cccc4F)[C@H]3C1CC2 (some centres not stated)
2. COc1ccc(NC(=O)CSC2=NC(=O)CC(C)=N2)cc1

["22.4 µM (inconclusive)", "15.8 µM (inconclusive)"]

* * *

biological target: Eukaryotic translation initiation factor 4E (Mus musculus); assay: blockers of eIF4G binding by eIF4E – biochemical, TR-FRET, dose response (AID 855); type: functional;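 further: potency for disrupting eIF4E binding to eIF4GI seen as loss of FRET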
Sequence (P63073 whole entry): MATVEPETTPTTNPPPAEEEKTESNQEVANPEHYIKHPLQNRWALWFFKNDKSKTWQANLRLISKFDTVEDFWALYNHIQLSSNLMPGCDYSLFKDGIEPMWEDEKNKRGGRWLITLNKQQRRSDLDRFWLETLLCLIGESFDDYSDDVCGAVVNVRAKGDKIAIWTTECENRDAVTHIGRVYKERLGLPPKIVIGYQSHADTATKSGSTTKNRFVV
The source made the active and inactive calls.
Measured quantity: IC50

- Substance smiles: "Cc1c(-n2cccc2C=O)cccc1[N+](=O)[O-]"
  Value reported: "50 µM (inactive)"
- Substance smiles: "CCN1C(=O)/C(=C\\c2ccc(-c3ccc([N+](=O)[O-])cc3OC)o2)S/C1=N\\c1cccc(C(=O)O)c1"
  Value reported: "50 µM (inactive)"
- Substance smiles: "CC(=O)Nc1ccc(S(=O)(=O)NCCSc2ccccn2)cc1"
  Value reported: "> 64 µM (inactive)"

# map each compound to its IC50
1. O=C(Cc1ccccc1)OCn1nnc2ccccc2c1=O
2. O=C(Cc1ccc(Cl)cc1)OCc1nnc(-c2ccccc2)o1

> 64 µM (inactive)
50 µM (inactive)

* * *

molecular target: Fatty acid synthase (Homo sapiens, UniProt P49327); experiment: inhibition of human FAS-TE enzyme activity – biochemical, endpoint fluorescence intensity, uHTS hits, dose response (AID 624327); assay type: functional;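 further: fluorescence from hydrolysis of an O-methyl fluorescein acyl ester substrate by the enzyme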
Sequence (P49327 whole entry): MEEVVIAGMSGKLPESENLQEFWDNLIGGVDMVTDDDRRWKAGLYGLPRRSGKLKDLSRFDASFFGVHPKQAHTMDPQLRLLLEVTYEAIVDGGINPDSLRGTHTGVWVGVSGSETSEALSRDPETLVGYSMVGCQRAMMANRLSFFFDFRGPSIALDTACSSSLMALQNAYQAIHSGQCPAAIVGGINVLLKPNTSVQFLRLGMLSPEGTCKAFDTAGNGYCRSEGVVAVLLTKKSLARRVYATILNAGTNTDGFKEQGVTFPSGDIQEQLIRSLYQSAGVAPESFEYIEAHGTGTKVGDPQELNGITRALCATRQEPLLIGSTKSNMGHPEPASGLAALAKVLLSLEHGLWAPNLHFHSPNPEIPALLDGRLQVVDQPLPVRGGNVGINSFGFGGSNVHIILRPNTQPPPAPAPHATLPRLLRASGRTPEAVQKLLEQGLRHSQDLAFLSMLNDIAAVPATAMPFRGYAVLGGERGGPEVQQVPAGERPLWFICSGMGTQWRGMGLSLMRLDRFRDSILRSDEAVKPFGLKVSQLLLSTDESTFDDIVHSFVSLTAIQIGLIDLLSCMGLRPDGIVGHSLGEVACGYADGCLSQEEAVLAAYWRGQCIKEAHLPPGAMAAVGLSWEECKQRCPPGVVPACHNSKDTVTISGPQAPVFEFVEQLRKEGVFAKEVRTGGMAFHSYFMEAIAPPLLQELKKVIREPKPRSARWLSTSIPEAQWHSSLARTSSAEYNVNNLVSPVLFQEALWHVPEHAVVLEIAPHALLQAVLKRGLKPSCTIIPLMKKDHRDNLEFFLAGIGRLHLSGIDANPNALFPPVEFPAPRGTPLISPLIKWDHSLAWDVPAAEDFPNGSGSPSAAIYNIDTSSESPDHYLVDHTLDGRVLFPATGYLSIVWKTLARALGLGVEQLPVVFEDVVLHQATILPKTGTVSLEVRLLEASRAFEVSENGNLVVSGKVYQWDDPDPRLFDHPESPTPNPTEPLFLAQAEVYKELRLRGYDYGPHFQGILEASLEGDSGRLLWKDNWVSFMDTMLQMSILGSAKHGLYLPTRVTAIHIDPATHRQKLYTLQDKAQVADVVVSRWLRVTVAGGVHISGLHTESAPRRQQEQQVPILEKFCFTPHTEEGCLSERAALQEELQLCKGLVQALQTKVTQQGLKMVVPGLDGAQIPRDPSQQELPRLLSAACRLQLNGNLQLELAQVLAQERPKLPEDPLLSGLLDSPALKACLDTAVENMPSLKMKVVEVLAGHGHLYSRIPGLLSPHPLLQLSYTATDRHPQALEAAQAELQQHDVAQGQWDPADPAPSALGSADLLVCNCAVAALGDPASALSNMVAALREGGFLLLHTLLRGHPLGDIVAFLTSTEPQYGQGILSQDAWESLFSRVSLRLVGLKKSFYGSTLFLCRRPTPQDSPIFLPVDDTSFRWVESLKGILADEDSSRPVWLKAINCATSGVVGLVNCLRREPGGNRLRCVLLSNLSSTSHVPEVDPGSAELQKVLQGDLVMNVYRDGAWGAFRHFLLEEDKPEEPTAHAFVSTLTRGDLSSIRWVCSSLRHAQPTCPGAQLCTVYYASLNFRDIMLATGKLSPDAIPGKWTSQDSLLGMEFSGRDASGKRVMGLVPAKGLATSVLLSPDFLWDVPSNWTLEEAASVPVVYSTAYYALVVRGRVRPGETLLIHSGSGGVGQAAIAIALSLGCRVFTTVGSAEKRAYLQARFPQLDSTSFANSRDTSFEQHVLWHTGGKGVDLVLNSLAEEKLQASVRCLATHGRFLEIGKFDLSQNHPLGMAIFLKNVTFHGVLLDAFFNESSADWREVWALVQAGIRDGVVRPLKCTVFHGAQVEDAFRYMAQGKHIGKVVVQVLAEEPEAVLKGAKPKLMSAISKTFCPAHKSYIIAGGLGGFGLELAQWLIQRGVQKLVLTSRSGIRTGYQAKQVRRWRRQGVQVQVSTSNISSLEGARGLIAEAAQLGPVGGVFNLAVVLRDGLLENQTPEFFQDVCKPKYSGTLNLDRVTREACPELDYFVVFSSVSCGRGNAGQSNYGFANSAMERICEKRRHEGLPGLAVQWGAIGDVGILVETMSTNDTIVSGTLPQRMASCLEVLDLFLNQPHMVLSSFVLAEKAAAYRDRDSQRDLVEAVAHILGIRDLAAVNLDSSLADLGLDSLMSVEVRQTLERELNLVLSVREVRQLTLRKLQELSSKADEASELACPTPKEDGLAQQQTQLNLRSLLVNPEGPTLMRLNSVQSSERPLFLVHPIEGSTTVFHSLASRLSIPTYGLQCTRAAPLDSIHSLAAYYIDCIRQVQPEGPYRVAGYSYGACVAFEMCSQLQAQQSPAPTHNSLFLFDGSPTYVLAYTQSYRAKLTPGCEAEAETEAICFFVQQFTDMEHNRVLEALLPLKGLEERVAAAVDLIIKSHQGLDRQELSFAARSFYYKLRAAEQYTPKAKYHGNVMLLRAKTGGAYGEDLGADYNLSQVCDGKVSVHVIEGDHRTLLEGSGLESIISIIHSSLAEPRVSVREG
Calls of active or inactive are those of the source.
Measured quantity: IC50

The examples below pair each entry with its known result.
- Compound: "Cn1c(-c2ccc(F)cc2)cnc1NCc1cccc([N+](=O)[O-])c1"
  Value reported: "5.28 µM (active)"
- Compound: "CC(=O)OCCNc1cc(Sc2nc3ccccc3[nH]2)c2nonc2c1[N+](=O)[O-]"
  Value reported: "1.75 µM (active)"
- Compound: "CS(=O)(=O)N1CCc2cc(-c3csc(NC(=O)Cc4ccccc4)n3)ccc21"
  Value reported: "8.79 µM (active)"
- Compound: "CS(=O)(=O)c1ccc(-c2csc(-c3cccnc3)n2)cc1"
  Value reported: "10.3 µM (active)"
- Compound: "O=C(N/C(=C/C=C\\c1ccccc1)C(=O)N1CCOCC1)c1ccc(Br)cc1"
  Value reported: "7.92 µM (active)"
- Compound: "Cc1cc(C(=O)OCC(=O)Nc2cccc([N+](=O)[O-])c2)c(C)o1"
  Value reported: "9.82 µM (active)"

Let me check: Cc1ccc2cc3cc(C(=O)N4CCCCC4C)oc3nc2c1 (configuration not stated) , system Fatty acid synthase (Homo sapiens, UniProt P49327), measured IC50 is 2.28 µM (active)

* * *

biological target: UniProtKB P34707; format: functional
Sequence (P34707 whole entry): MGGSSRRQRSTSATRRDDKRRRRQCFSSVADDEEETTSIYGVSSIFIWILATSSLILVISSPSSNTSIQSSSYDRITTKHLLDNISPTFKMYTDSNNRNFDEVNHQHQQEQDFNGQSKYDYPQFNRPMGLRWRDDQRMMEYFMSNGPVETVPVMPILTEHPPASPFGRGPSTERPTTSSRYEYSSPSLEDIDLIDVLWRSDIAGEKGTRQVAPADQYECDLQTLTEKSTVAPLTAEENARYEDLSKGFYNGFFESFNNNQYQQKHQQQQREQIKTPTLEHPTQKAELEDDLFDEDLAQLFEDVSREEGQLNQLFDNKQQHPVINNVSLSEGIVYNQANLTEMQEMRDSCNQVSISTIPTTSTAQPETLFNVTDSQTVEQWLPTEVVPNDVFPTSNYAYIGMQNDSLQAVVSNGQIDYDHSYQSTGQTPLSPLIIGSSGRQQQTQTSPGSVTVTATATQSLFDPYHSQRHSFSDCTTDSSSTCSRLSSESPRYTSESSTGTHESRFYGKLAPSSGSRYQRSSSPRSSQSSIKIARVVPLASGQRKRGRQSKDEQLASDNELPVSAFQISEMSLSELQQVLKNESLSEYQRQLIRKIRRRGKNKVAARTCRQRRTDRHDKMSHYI
The source made the active and inactive calls.
Respond using exactly one of the listed classes: yes (1) for active, no (0) for inactive

A selection of reference data follows.
- Substance smiles: "Clc1ccccc1/C=C/c1nc(-c2cccnc2)no1"
  Qualitative label: "no (0)"
- Substance smiles: "O=S(=O)(c1ccc(F)cc1)n1ccc(-c2cccc(OCc3c(F)cccc3Cl)c2)n1"
  Qualitative label: "no (0)"

What did the test return for CCCCC(=O)NCc1ccc2c(c1)cc(C)n2C ? no (0)

What did the test return for CCC(=O)NCCn1c(C)cc2ccccc21 ? no (0)

What did the test return for COc1cc2c(cc1NC(=O)c1cccnc1)CCCC2 ? no (0)

What did the test return for c1ccc(OCCSc2nc3ccccc3o2)cc1 ? yes (1)
